assay: NCI Yeast Anticancer Drug Screen. Data for the rad50EPP+ strain (AID 151);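 note: 0% = growth of vehicle-treated control cultures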; conditions: S. cerevisiae rad50 mutant strain, at 1.2 µM, stronger effect = higher value
About 79,000 compounds went through this panel and 15% of them were active in at least one assay; those are over-represented in the sample as a whole.
measured.quantity: growth inhibition (%)

compound: CCOC(=O)/C=C1\CCCn2c1ncc(C(=O)OCC)c2=O
measured.quantity: growth inhibition
unit.annotation: %
assay.value: -1
--
compound: CN(Cc1cccc2ccccc12)Cc1cccc2ccccc12
measured.quantity: growth inhibition
unit.annotation: %
assay.value: -1
--
compound: O=c1oc(C(C(F)(F)F)C(F)(F)F)nc2ccccc12
measured.quantity: growth inhibition
unit.annotation: %
assay.value: 22
--
compound: c1ccc(C2=NNC3c4ccccc4-c4ccccc4N3C2)cc1 (stereo unspecified)
measured.quantity: growth inhibition
unit.annotation: %
assay.value: -2
--
compound: NCC(O)CSCc1ccc(Cl)cc1 (stereo unspecified)
measured.quantity: growth inhibition
unit.annotation: %
assay.value: -3
--
compound: CCCCCCCCCCCCCCCCOCC(Cl)COP(=O)(O)OP(=O)(O)OCC1OC(n2cnc3c(N)ncnc32)C(O)C1O (stereo unspecified)
measured.quantity: growth inhibition
unit.annotation: %
assay.value: 20

----------
experiment: NCI Yeast Anticancer Drug Screen. Data for the mlh1 strain (AID 171);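 note: 0% = growth of vehicle-treated control cultures of the same strain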; conditions: S. cerevisiae mlh1 strain growth inhibition; at 1.2 µM; stronger effect = higher value
About 79,000 compounds went through this panel and 15% of them were active in at least one assay; those are over-represented in the sample as a whole.

molecule: CCCC#CCOC(=O)c1cc([N+](=O)[O-])cc([N+](=O)[O-])c1
unit.annotation: %
growth inhibition: 1
//
molecule: NCC(O)CSCc1ccc(Cl)cc1 (stereo not given)
unit.annotation: %
growth inhibition: -5
//
molecule: CC[N+]1(C)CCC(O)(/C=C/c2ccc(Cl)c(Cl)c2)C(C(=O)/C=C/c2ccc(Cl)c(Cl)c2)C1 (stereo not given)
unit.annotation: %
growth inhibition: 6
//
molecule: CC[C@@]1(OC(=O)CN(C)C)C(=O)OCc2c1cc1n(c2=O)Cc2cc3ccccc3nc2-1
unit.annotation: %
growth inhibition: 0
//
molecule: Cc1ccc2nc(N/N=C/c3ccc(C)s3)cc(C)c2c1
unit.annotation: %
growth inhibition: -18
//
molecule: Cc1cccc(N2CCN(C(=O)/C(=C/c3ccccc3)NC(=O)c3ccccc3)CC2)c1
unit.annotation: %
growth inhibition: -1
//
molecule: O=C1C=CC(=O)N1c1ccc(Br)cc1Cl
unit.annotation: %
growth inhibition: 96
//
molecule: O=S(=O)(O)CC[S][Sn]([S]CCS(=O)(=O)O)([c]1ccccc1)[c]1ccccc1
unit.annotation: %
growth inhibition: -35
//
molecule: O=[N+]([O-])c1cccc2nc3ccccc3c(NCCC[N+]3([O-])CCOCC3)c12
unit.annotation: %
growth inhibition: 1
//
molecule: O=c1[nH]c(=O)n(CCCO)cc1F
unit.annotation: %
growth inhibition: -30

----------
assay: NCI Yeast Anticancer Drug Screen. Data for the rad18 strain (AID 177); details: S. cerevisiae rad18 mutant growth inhibition; at 3.7 µM
This is part of a sample that, as a whole, favours compounds with a hit. Of some 79,000 tested, about 15% had one in any assay. Active and inactive are the calls of the source. No stated cut-off is given here; in the data, active means growth inhibition above about 70%; inactive means the rest.
Outcome codes: label 1 for active, label 0 for inactive

compound: CC(O)CN1C(=O)c2cccc3cc([N+](=O)[O-])cc(c23)C1=O (configuration not stated)
class.label: label 0

compound: N=C(N)c1ccc(N=Nc2c(O)ccc3c2[nH]c2ccccc23)cc1
class.label: label 0

compound: O=C(O)CN(CCNC(=O)OCC1c2ccccc2-c2ccccc21)CCNC(=O)OCC1c2ccccc2-c2ccccc21
class.label: label 0

compound: CSc1ccc2c(c1)C(N1CCN(C)CC1)Cc1ccccc1S2 (configuration not stated)
class.label: label 0

compound: Cc1cc(NCCCN(C)C)c2ccc3c(ccc4c(NCCCN(C)C)cc(C)nc43)c2n1
class.label: label 0

compound: COc1ccc2cc(CN3CCC(C4CCN(Cc5ccc6cc(OC)ccc6c5)CC4)CC3)ccc2c1
class.label: label 0

compound: Nc1cccc2cc(Cl)cnc12
class.label: label 0

compound: CN(C)N1C(=O)SCC(c2ccccc2)(c2ccccc2)C1=O
class.label: label 0

compound: Cc1nc2ccc(Br)cc2c(=O)n1-c1ccc(NC2OCC(O)C(O)C2O)cc1 (configuration not stated)
class.label: label 0

compound: COc1ccc(/C(=N/O)c2ccccc2C2=Nc3ccccc3C(NCc3ccccc3)O2)cc1C (configuration not stated)
class.label: label 0

compound: Cc1cnc(/C=N\NC(N)=S)c2cccc(N)c12
class.label: label 0

compound: Nc1nc(Nc2ccccc2)nc(Nc2ccccc2)n1
class.label: label 0

compound: CN(C)/N=N/c1nc[nH]c1C(N)=O
class.label: label 0

compound: Nc1c([N+](=O)[O-])cc2c3c(cccc13)CC2
class.label: label 1

compound: O=C1C=CC(=O)N1c1ccc(Br)cc1Cl
class.label: label 1

compound: [Cl][Pt+2][Cl].[NH-]CC1(C[NH-])CCCCC1
class.label: label 0

compound: COc1ccc2c(Cc3c4ccccc4cc4ccccc34)cncc2c1O
class.label: label 0

compound: OC(c1ccc(Br)cc1)(c1cccs1)C1CC1 (configuration not stated)
class.label: label 0

compound: CCOC(=O)c1sc2[n+](c1C)C(=O)/C(=C/c1cc(OC)c(OC)c(OC)c1)S2
class.label: label 0

compound: CN(C)CCn1c2ccccc2c2nc3cc4ccccc4cc3nc21
class.label: label 0

compound: CC(=O)c1ccc(NCN2C(=O)c3ccccc3C2=O)cc1
class.label: label 0

compound: CCN(CC)CCSc1c2ccccc2nc2cc(NCC(=O)Nc3ccccc3-c3ccccc3NC(=O)CNc3ccc4c(SCCN(CC)CC)c5ccccc5nc4c3)ccc12
class.label: label 0

----------
assay: NCI Yeast Anticancer Drug Screen. Data for the sgs1 mgt1 strain (AID 161);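 note: 0% = growth of cultures given vehicle only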; settings: S. cerevisiae sgs1 mgt1 strain, at 50.0 µM, stronger effect = higher value
This is part of a sample that, as a whole, favours compounds with a hit. Of some 79,000 tested, about 15% had one in any assay.
Kindly return class 1 if reported growth inhibition is no lower than 60%; return class 0 if it is lower.

compound: COc1ccc2nc(N/N=C/c3sccc3C)cc(C)c2c1
class.label: class 1

compound: COc1cc(NCCCCCNC(C)C)c2ncccc2c1Cl
class.label: class 0

compound: O=C1C(C(O)(C(F)(F)F)C(F)(F)F)CCC1C(O)(C(F)(F)F)C(F)(F)F (stereo not given)
class.label: class 1

compound: N=c1oc2ccccc2cc1-c1nc2ccccc2[nH]1
class.label: class 0

compound: CC1=Cc2ccc(C)cc2C(=O)C1=O
class.label: class 1

compound: O=C(Nn1c(-c2ccccc2)nc2ccccc2c1=O)c1ccc(Cl)cc1
class.label: class 0

compound: COc1ccc(/C=C2\S/C(=N/Nc3nc(-c4ccccc4)cs3)NC2=O)cc1OC
class.label: class 1

compound: O=C1c2ccccc2-c2ccc(NC(=O)C3CCCCC3C(=O)O)cc21 (stereo not given)
class.label: class 0

compound: COc1ccc2c(Cc3c4ccccc4cc4ccccc34)cncc2c1O
class.label: class 1

compound: CCN(CC)c1ccc(N=Nc2cc(S(=O)(=O)O)ccc2O)c(O)c1
class.label: class 1

compound: CN(C)CCC(=O)c1c[nH]c2ccccc12
class.label: class 1

compound: Nc1ccccc1SSc1ccccc1N
class.label: class 1

compound: O=C1c2ccc(O)cc2C(=O)c2c(O)ccc(O)c21
class.label: class 1

compound: CCCCCCCCCCCCOC1C(COCCN2CCCC2)OC2OC(C)(C)OC21 (stereo not given)
class.label: class 1

compound: C#CC1=CC(=O)C(OC)=CC1=O
class.label: class 0

compound: Oc1ccc(Cc2nccc3cc(O)c(O)cc23)cc1O
class.label: class 0

compound: CCC(C)/C(C)=N/NC(N)=O (stereo not given)
class.label: class 0

compound: C=Cc1c(C)c(O)cc2c1-c1ccc(O)c(C)c1CC2
class.label: class 0

compound: COc1ccc(/C(=N/O)c2ccccc2C2=Nc3ccccc3C(NCc3ccccc3)O2)cc1C (stereo not given)
class.label: class 1

compound: CCCC(=O)OC(OC(=O)CCC)c1ccc([N+](=O)[O-])o1
class.label: class 0

compound: CN(C)N=Nc1ccc(NC=O)cc1
class.label: class 1

compound: Cc1ccc(Cl)c2c(=O)c3ccccc3[nH]c12
class.label: class 0

compound: CC[C@@]1(OC(=O)CN(C)C)C(=O)OCc2c1cc1n(c2=O)Cc2cc3ccccc3nc2-1
class.label: class 1

compound: CCC1SC(=S)N(c2ccc(Cl)cc2)C1=O (stereo not given)
class.label: class 1

----------
assay: NCI Yeast Anticancer Drug Screen. Data for the wt2 strain (AID 169);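 note: 0% = growth of vehicle-treated yeast cultures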; conditions: S. cerevisiae wt2 strain growth inhibition; at 3.7 µM; stronger effect = higher value
About 79,000 compounds went through this panel and 15% of them were active in at least one assay; those are over-represented in the sample as a whole. Calls of active or inactive are those of the source. Rule as the data show it: active = growth inhibition above about 70%; inactive = the rest.
growth inhibition by entry:
measured.quantity: growth inhibition

compound: N=C(N)c1ccc(N=Nc2c(O)ccc3c2[nH]c2ccccc23)cc1
assay.value: 5% (inactive)

compound: COc1ccc(/C(=N/O)c2ccccc2C2=Nc3ccccc3C(NCc3ccccc3)O2)cc1C (stereo not given)
assay.value: -3% (inactive)

compound: COc1cc(C(C)C(C(=O)O)C(=O)C(=O)O)cc(OC)c1OC (stereo not given)
assay.value: 0% (inactive)

compound: O=C1OC(c2ccc(Cl)cc2)Sc2ccccc21 (stereo not given)
assay.value: 6% (inactive)

compound: CCCCCCCCCCCCCCCCOCC(Cl)COP(=O)(O)OP(=O)(O)OCC1OC(n2cnc3c(N)ncnc32)C(O)C1O (stereo not given)
assay.value: -3% (inactive)
